TARGET UNDER TEST: T1, PUF4 RNA-binding domain (Saccharomyces cerevisiae, UniProt P25339 537-888)
T1 sequence: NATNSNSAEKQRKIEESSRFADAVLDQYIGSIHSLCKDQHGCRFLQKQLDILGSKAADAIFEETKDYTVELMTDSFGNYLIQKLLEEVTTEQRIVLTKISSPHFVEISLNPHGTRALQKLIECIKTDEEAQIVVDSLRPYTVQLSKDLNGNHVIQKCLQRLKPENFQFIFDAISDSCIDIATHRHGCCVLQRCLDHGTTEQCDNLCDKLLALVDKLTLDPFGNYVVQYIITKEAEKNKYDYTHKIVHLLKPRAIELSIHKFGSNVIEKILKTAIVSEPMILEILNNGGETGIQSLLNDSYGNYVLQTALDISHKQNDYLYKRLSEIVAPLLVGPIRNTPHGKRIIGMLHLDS
PROTOCOL DESCRIPTION: Mg; RNA-MaP; 20 mM Na-HEPES pH 7.4, 30 mM KOAc, 0.75 mM MgCl2, 0.1% Tween-20, 5% glycerol, 0.1 mg/mL BSA, 2 mM DTT; 25 C; 0.0125-409.6 nM protein
CONDITION SET: tags: N-His6-TEV cleaved; C-SNAP kept, Cy3B-labelled; label: tethered on chip by stalled RNA polymerase

[
  {
    "BINDER": "Ic_S4_P4E.1_K4.1_C4.1_H4.1_A4.1_[T5G]_[A6C]_[T7C]_F4.1_[T8A]_T4.1 (ssRNA) RNA: UUUGACAACUGAUCGUUCUUUCUUGUAGCCAAUUCUUUCUCGAUCAGUUGUCUUU",
    "ENDPOINT UNIT": "nM",
    "MODIFIER SIGN": "=",
    "Kd": 780
  },
  {
    "BINDER": "Id_ii_S4_P3E.3_K3.2_C3.2_[C-2A]_[T-1A]_H3.2_A3.1_F3.1_T3.2_[A10C] (ssRNA) RNA: UUUGACAACUGAUCGUUCUUUCUAAUAUAUAUAUCUUCUUUCUCGAUCAGUUGUCUUU",
    "ENDPOINT UNIT": "nM",
    "MODIFIER SIGN": "=",
    "Kd": 296
  },
  {
    "BINDER": "UCUCUUUGUAUGAUUCUCUU (ssRNA) [Ic_S1_P3E.1_K3.1_C3.1_H3.1_A3.1_[A6G]_F3.1_[T7A]_[A8T]_T3.1]",
    "ENDPOINT UNIT": "nM",
    "MODIFIER SIGN": "=",
    "Kd": 42.2
  },
  {
    "BINDER": "UCUCUUUGUAAUAUCUCUCUU (ssRNA) [Ic_S1_P4E.1_K4.1_C4.1_H4.1_A4.1_[T5A]_[A6T]_[T7A]_F4.1_[A9C]_T4.1]",
    "ENDPOINT UNIT": "nM",
    "MODIFIER SIGN": "=",
    "Kd": 36
  },
  {
    "BINDER": "Id_ii_S4_P4E.3_K4.2_C4.2_H4.2_A4.1_F4.1_T4.2_[T11C] (ssRNA) RNA: UUUGACAACUGAUCGUUCUUUCUCUUAUAUAUUAGCUUCUUUCUCGAUCAGUUGUCUUU",
    "ENDPOINT UNIT": "nM",
    "MODIFIER SIGN": "=",
    "Kd": 5.07
  },
  {
    "BINDER": "UCUCUUUCUUGUAAUAAAAUCUCUCUU (ssRNA) [Id_iii_S1_P5E.9_K5.5_C5.3_H5.1_A5.2_F5.2_T5.2_[A12C]]",
    "ENDPOINT UNIT": "nM",
    "MODIFIER SIGN": "=",
    "Kd": 411
  },
  {
    "BINDER": "UCUCUUUGUCCUAUUAUCUCUU (ssRNA) [Ib_S1_P5E.1_K5.1_C5.1_H5.1_[A4C]_A5.1_[T5C]_F5.1_T5.1]",
    "ENDPOINT UNIT": "nM",
    "MODIFIER SIGN": "=",
    "Kd": 79.5
  },
  {
    "BINDER": "Ie_S2_P3E.2_K3.1_C3.2_H3.1_[+2TTT]_A3.1_F3.1_T3.2 (ssRNA) RNA: UUUGAUUAAUAUGAUAUCGUUCUUUCUCUUGUUUUAUAUAUAUUCUUUCUCGAUAUCAUAUUAAUCUUU",
    "ENDPOINT UNIT": "nM",
    "MODIFIER SIGN": "=",
    "Kd": 10.7
  },
  {
    "BINDER": "Ib_S4_P3E.1_K3.1_C3.1_H3.1_[G2A]_A3.1_[A6T]_F3.1_T3.1 (ssRNA) RNA: UUUGACAACUGAUCGUUCUUUCUUAUAUUUAUUCUUUCUCGAUCAGUUGUCUUU",
    "ENDPOINT UNIT": "nM",
    "MODIFIER SIGN": "=",
    "Kd": 1900
  },
  {
    "BINDER": "UCUCUUUAUGUAUUAUUAAAUCUCUU (ssRNA) [Id_ii_S1_P5E.2_K5.1_C5.2_[C-2T]_[T-1A]_H5.1_A5.1_F5.1_T5.2_[T11A]]",
    "ENDPOINT UNIT": "nM",
    "MODIFIER SIGN": "=",
    "Kd": 16.8
  },
  {
    "BINDER": "Id_ii_S2_P4E.4_K4.3_C4.2_[C-2T]_[T-1C]_H4.3_A4.1_F4.1_T4.2_[G10C] (ssRNA) RNA: UUUGAUUAAUAUGAUAUCGUUCUUUCUUCACACUAUUACUUUCUUUCUCGAUAUCAUAUUAAUCUUU",
    "ENDPOINT UNIT": "nM",
    "MODIFIER SIGN": ">",
    "Kd": 2300
  },
  {
    "BINDER": "UCUCUUAUACACUAUACCUCUCUU (ssRNA) [Id_ii_S1_P3E.4_K3.3_C3.2_[C-2A]_H3.3_A3.1_F3.1_T3.2_[T9C]_[A10C]]",
    "ENDPOINT UNIT": "nM",
    "MODIFIER SIGN": "=",
    "Kd": 30.1
  }
]
